meta.source: patent US20250368734A1

- target.desc: T1, human GPRC5D (human, UniProt Q9NZD1 1-345)
- T1 construct: whole, on cells; also called hGPRC5D; G-protein coupled receptor family C group 5 member D
- procedure.text: FACS, CHOS-hGPRC5D cells
Let's look at some binders and their measured pEC50.
pEC50 is a log-scale quantity: -log10 of the concentration expressed in molar.

Please review the entries below; each comes with its answer.
>  <binder>
ch110B4H5 (antibody, V domains shown) VH: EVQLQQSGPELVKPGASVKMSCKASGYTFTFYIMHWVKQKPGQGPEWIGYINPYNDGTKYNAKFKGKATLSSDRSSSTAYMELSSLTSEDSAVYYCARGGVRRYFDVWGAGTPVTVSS VL: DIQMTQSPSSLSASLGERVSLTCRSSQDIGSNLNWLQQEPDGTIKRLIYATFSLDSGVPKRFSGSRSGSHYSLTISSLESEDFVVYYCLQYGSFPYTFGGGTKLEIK

>  <test.value>
8.56

$$$$
>  <binder>
ch108C4C12 (antibody, V domains shown) VH: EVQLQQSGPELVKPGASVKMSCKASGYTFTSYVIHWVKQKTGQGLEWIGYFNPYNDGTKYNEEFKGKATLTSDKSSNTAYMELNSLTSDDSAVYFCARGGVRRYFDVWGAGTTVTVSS VL: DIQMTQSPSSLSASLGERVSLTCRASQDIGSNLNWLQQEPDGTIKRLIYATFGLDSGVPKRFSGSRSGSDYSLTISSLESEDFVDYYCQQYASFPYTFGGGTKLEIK

>  <test.value>
9.33

$$$$
>  <binder>
ch90G6H3 (antibody, V domains shown) VH: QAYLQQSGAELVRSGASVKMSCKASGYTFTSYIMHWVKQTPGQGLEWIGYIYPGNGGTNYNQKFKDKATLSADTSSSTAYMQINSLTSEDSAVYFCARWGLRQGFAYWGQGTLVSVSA VL: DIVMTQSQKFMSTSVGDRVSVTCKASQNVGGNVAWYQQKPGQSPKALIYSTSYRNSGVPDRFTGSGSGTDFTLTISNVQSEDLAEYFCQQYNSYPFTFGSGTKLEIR

>  <test.value>
8.07

$$$$
>  <binder>
ch28H9C12 (antibody, V domains shown) VH: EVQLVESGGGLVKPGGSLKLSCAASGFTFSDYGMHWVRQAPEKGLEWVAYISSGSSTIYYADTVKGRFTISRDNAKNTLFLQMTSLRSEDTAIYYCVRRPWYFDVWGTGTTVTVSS VL: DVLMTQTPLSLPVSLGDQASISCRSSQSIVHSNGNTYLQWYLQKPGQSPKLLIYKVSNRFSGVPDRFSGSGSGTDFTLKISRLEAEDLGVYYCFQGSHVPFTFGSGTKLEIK

>  <test.value>
8.55

$$$$
>  <binder>
ch96C9E7 (antibody, V domains shown) VH: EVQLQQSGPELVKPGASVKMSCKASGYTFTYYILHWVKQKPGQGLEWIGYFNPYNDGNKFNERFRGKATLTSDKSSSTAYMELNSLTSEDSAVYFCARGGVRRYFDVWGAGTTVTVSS VL: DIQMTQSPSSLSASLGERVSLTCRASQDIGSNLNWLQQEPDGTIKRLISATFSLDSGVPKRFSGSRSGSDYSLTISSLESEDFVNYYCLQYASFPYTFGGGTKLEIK

>  <test.value>
8.71

$$$$

So what does the record say about pEC50 for ch116G1G4 (antibody, V domains shown) VH: EVQLQQSGPELVKPGASVKMSCKASGYTFTYYIMHWVKQEPGQGLQWIGYINPYNDGAYYSARFKGKATLTSDKSSSTAYMDLTSLTSEDSAVYYCARGGVRRYFDVWGAGTTVTVSS VL: DIQMTQSPSSLSASLGERVILTCRASQDIGSNLIWLQQKPDGTIKRLIYATFNLDSGVSKRFSGSRSGSDYSLTISSLDSEDFVDYYCLQYASSPYTFGGGTKLEIK ? 9.16

So what does the record say about pEC50 for ch83A9B8 (antibody, V domains shown) VH: EVQLQQSGPELVKPGASVKMSCKASGYTFSNYVIHWVKQKPGQGLEWIGYFNPYNDGSKYNEKFKGKATLTSDKSSSTAYMELSSLTSEDSAVYYCARGGVRRYFDVWGAGTTVTVSS VL: DIQMTQSPSSLSASLGERVSLTCRASQDIGDNLNWLQQEPDGTIKRLIYATFSLDSGVPKRFSGSRSGSVYSLTISRLESEDFVDYFCLHYASFPYTFGGGTKLEIK ? 9.40

So what does the record say about pEC50 for ch87A3G8 (antibody, V domains shown) VH: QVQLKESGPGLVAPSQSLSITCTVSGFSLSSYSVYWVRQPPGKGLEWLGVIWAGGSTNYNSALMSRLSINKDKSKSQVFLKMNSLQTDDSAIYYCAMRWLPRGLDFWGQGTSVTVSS VL: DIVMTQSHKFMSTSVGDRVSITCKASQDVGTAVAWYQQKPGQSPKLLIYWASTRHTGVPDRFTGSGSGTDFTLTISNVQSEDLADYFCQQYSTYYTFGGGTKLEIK ? 8.55

So what does the record say about pEC50 for ch89F11E3 (antibody, V domains shown) VH: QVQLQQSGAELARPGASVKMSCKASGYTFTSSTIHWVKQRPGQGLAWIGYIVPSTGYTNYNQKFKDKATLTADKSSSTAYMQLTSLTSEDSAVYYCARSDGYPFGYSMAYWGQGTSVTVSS VL: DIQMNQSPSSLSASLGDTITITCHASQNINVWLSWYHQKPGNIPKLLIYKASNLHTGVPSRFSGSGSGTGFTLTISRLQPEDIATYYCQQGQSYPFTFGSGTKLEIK ? 8.62

So what does the record say about pEC50 for ch15D6G2 (antibody, V domains shown) VH: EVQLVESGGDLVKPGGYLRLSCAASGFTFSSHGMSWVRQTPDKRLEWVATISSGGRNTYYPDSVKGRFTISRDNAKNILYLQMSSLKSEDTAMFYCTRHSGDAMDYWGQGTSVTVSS VL: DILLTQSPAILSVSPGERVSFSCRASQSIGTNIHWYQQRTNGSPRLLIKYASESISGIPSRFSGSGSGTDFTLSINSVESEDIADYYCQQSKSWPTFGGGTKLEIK ? 8.90

So what does the record say about pEC50 for ch116F1G6 (antibody, V domains shown) VH: EVQLQHSGPELVKPGASVKMSCKASGYTFTTYVMHWVKQKPGQGLEWIGYINPYNDGTKYNEKFKGKATLTSDKSSSTAYMELSSLTSEDSAVYYCARGGVRRYFDVWGAGTTVTVSS VL: DIQMTQSPSSLSASLGERVSLTCRASQDIGSNLNWLQQEPNGTIKRLIYATFTLDSGVPKRFSGSRSGSDYSLTISSLESEDFVDYYCLQYASFPYTFGGGTKLEIK ? 9.06
